assay.target: Cyclin-dependent kinase 2 (Homo sapiens);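 note: mean inhibition of CDK2 bound to cyclin A, from the GSK PKIS kinase inhibitor set screen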
protocol.conditions: at 0.1 µM
recorded.metric: inhibition
Lab note: write values as number then unit, every time.

These recorded examples may help you get a feel for the data.
{"structure.as.smiles": "CN(C)CCOc1ccc(-c2nc(-c3ccncc3)c(-c3ccc4c(c3)CC/C4=N\\O)[nH]2)cc1", "inhibition": "1.86%"}
{"structure.as.smiles": "COC(=O)Nc1nc2ccc(Oc3ccc(NC(=O)Nc4cccc(Cl)c4)cc3)cc2[nH]1", "inhibition": "-0.3%"}
{"structure.as.smiles": "[O-][S+]1CCN(Cc2ccc(-c3ccc4ncnc(Nc5ccc(OCc6cccc(F)c6)c(Cl)c5)c4c3)o2)CC1", "inhibition": "3.62%"}
{"structure.as.smiles": "Cc1ccc2c(-c3ccnc(Nc4ccccc4)n3)c(-c3ccc(F)cc3)nn2n1", "inhibition": "2.27%"}
{"structure.as.smiles": "COc1ccc(-c2nn3ncccc3c2-c2ccnc(Nc3ccc4c(c3)OCCO4)n2)cc1", "inhibition": "0.22%"}
{"structure.as.smiles": "CCn1cc(-c2ccnc3[nH]ccc23)c(-c2cccc(NC(=O)Nc3ccc(OCc4ccccc4)cc3)c2)n1", "inhibition": "-0.95%"}

Inquiry: I would be grateful if you could share the reported inhibition for `Fc1ccc(-c2nn3ccccc3c2-c2ccncc2)cc1` .
Reply text: 2.05%

Inquiry: Same question for `Fc1ccc(-c2cc(-c3c[nH]nc3-c3ccccn3)ccn2)cc1` please.
Reply text: 2.51%

Inquiry: Now the same for `Fc1cccc(COc2ccc(Nc3ncnc4sc(-c5ccco5)cc34)cc2Cl)c1`
Reply text: 2.79%

* * *

assay.target: Phosphatidylinositol 4,5-bisphosphate 3-kinase catalytic subunit alpha isoform (Homo sapiens);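 note: values are mean percent inhibition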
protocol.conditions: at 1 µM
recorded.metric: inhibition (%)
Return type: number; implicit unit %.

Inquiry: What inhibition value was documented for this compound, `Cc1cccc(Nc2ncc(-c3ccccc3)o2)c1` ?
Reply text: -0.17

Inquiry: Next up: `CCCN1CCC(c2ccc(Nc3nc(Nc4cc(F)ccc4C(N)=O)c4cc[nH]c4n3)c(OC)c2)CC1`
Reply text: 3.17

Inquiry: Continue with `CNC(=O)c1cccc(C#Cc2cncnc2Nc2ccc(OCc3cccc(F)c3)c(Cl)c2)c1`
Reply text: -2.56

Inquiry: Next: `CCCN(CCS(C)(=O)=O)Cc1ccc(-c2ccc3ncnc(Nc4ccc(OCc5cccc(F)c5)c(Cl)c4)c3c2)o1`
Reply text: 4.19

Inquiry: Now the compound `CN(C)CCOc1ccc(-c2nc(-c3ccncc3)c(-c3ccc4c(c3)CC/C4=N\O)[nH]2)cc1`
Reply text: 3.29

* * *

Below is a list of entries, each paired with its recorded inhibition value.
assay.target: SRSF protein kinase 1 (Homo sapiens);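 note: reported values are mean percent inhibition of SRPK1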
protocol.conditions: at 1 µM
Write the number in % without appending the unit.

Observe how each entry below is paired with its result.
{"structure.as.smiles": "c1ccc(-c2nc3n(c2-c2ccc4c(c2)OCO4)CCC3)nc1", "reading.unit": "%", "inhibition": -1.84}
{"structure.as.smiles": "Fc1cccc(COc2ccc(Nc3ncnc4sc(-c5ccco5)cc34)cc2Cl)c1", "reading.unit": "%", "inhibition": -2.01}
{"structure.as.smiles": "CNC(=O)c1cc(-c2ccc(F)cc2)cc(-c2ccc(S(=O)(=O)N3CCCC3)cc2)c1N", "reading.unit": "%", "inhibition": -1.56}
{"structure.as.smiles": "Cc1ccc2c(-c3ccnc(Nc4ccccc4)n3)c(-c3ccc(F)cc3)nn2n1", "reading.unit": "%", "inhibition": -2.42}
{"structure.as.smiles": "COc1ccc2[nH]c3c4[nH]c5ccc(OC)cc5c4c4c(c3c2c1)C(=O)NC4=O", "reading.unit": "%", "inhibition": 6.5}
{"structure.as.smiles": "c1ccc(COc2ccc(Nc3ncnc4ccc(-c5ccco5)cc34)cc2)cc1", "reading.unit": "%", "inhibition": -1.65}
{"structure.as.smiles": "NC(=O)c1sc(-n2cnc3ccc(C(F)(F)F)cc32)cc1OCc1ccccc1Br", "reading.unit": "%", "inhibition": -2.85}

Shift focus to the following entry.
Inquiry: Quick check: inhibition of `N#Cc1c(NC(=O)CN2CCOCC2)sc2c1CCCC2` ?
Reply text: 3.81

* * *

Catalogue of molecules with associated inhibition
assay.target: NT-3 growth factor receptor (Homo sapiens) (UniProt Q16288)
Sequence (Q16288 32-839 limits assumed): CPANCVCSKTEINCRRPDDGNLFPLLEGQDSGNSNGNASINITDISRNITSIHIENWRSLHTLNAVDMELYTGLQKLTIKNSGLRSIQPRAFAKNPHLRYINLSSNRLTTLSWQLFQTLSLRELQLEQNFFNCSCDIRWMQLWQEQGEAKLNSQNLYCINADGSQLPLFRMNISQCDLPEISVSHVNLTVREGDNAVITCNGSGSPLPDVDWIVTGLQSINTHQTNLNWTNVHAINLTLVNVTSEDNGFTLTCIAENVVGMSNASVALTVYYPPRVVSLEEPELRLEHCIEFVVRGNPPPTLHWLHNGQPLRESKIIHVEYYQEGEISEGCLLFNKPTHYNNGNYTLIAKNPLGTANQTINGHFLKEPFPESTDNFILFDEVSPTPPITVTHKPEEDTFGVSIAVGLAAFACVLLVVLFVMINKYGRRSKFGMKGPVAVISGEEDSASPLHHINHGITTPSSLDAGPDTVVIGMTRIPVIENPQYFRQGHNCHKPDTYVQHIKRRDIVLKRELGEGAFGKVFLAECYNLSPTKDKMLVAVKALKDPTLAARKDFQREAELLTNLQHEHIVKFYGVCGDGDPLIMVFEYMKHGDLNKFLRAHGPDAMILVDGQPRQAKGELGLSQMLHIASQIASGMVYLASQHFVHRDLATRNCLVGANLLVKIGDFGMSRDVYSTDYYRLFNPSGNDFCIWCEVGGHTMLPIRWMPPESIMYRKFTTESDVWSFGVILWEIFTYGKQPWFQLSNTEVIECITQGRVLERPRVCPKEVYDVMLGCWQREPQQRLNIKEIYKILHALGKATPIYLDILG
protocol.conditions: at 0.1 µM
Dear colleague, please return just the value in %, with no unit written.

{"structure.as.smiles": "COc1cc2c(cc1Nc1nc(Nc3ccsc3C(N)=O)c3cc[nH]c3n1)N(C(=O)CN(C)C)CCC2(C)C", "reading.unit": "%", "inhibition": 4.08}
{"structure.as.smiles": "NS(=O)(=O)c1ccc(N/N=C2\\C(=O)Nc3ccc4ncccc4c32)cc1", "reading.unit": "%", "inhibition": 26.7}
{"structure.as.smiles": "Fc1ccc(-c2cc(-c3c[nH]nc3-c3ccccn3)ccn2)cc1", "reading.unit": "%", "inhibition": 4.06}
{"structure.as.smiles": "CN(C)CCOc1ccc(-c2nc(-c3ccncc3)c(-c3ccc4c(c3)CC/C4=N\\O)[nH]2)cc1", "reading.unit": "%", "inhibition": 1.52}

Moving on to the next molecule.
Inquiry: Find the measured inhibition: item `Cc1cccc2c1NC(=O)/C2=N\Nc1ccc(S(N)(=O)=O)cc1` , target or system NT-3 growth factor receptor (Homo sapiens) (UniProt Q16288).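 Note: mean percent inhibition of TRKC, reported within the GSK PKIS dataset.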
Reply text: 0.44

* * *

assay.target: Tyrosine-protein kinase Tec (Homo sapiens);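 note: each value is the mean of the inhibition measurements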
protocol.conditions: at 1 µM
recorded.metric: inhibition (%)
Numeric only. Scale: %

Solved cases (3 shown):
{"molecule": "COc1ccc(-c2cc3c(N)ncnc3o2)cc1", "assay.target": "Tyrosine-protein kinase Tec (Homo sapiens)", "inhibition (%)": 3.07}
{"molecule": "COc1cc2ncn(-c3cc(OCc4ccccc4C(F)(F)F)c(C(=O)N(C)C)s3)c2cc1OC", "assay.target": "Tyrosine-protein kinase Tec (Homo sapiens)", "inhibition (%)": 2.14}
{"molecule": "CN1CCC(n2cnc(-c3ccc(F)cc3)c2-c2ccnc(N)n2)CC1", "assay.target": "Tyrosine-protein kinase Tec (Homo sapiens)", "inhibition (%)": 5.01}

Inquiry: Quick check: inhibition of `CC(C)(CO)CNC(=O)c1ccc2c(c1)/C(=N/Nc1ccc(S(N)(=O)=O)cc1)C(=O)N2` ?
Reply text: 5.32

Inquiry: And then `CNC(=O)c1cncc(/C=C/c2ccccc2Cl)c1` , what is it?
Reply text: 10.2

Inquiry: Do the same for `c1ccc(COc2ccc(Nc3ncnc4ccc(-c5ccco5)cc34)cc2)cc1` please
Reply text: 3.25

Inquiry: What about this molecule? `COc1cccc(-c2c[nH]c3c(N/N=C/c4ccncc4)ncnc23)c1`
Reply text: 16.5

Inquiry: Could you do the same for `COc1cc(/C=N/Nc2ncnc3[nH]ncc23)ccc1O` , please?
Reply text: 38.6

Inquiry: Repeat with `Fc1cccc(COc2ccc(Nc3ncnc4sc(-c5ccco5)cc34)cc2Cl)c1`
Reply text: 5.13

Inquiry: Repeat with `Cc1ccc2c(-c3ccnc(Nc4ccccc4)n3)c(-c3ccc(F)cc3)nn2n1`
Reply text: 38.1

Inquiry: Item: `CS(=O)(=O)CCNCc1coc(-c2ccc3ncnc(Nc4ccc(OCc5ccccc5)cc4)c3c2)c1`
Reply text: 6.39

Inquiry: Would you kindly repeat that for `COc1cc(N2CCN(C(C)C)CC2)ccc1Nc1nc(Nc2ccc(F)cc2C(N)=O)c2cc[nH]c2n1` ?
Reply text: 3.59

Inquiry: Likewise for `COc1ccc(CNC(=O)c2ccc(-c3cc(-c4nnc(C)o4)ccc3C)cc2)cc1` ?
Reply text: 3.52

Inquiry: Input `CCCN1CCC(c2ccc(Nc3nc(Nc4cc(F)ccc4C(N)=O)c4cc[nH]c4n3)c(OC)c2)CC1`
Reply text: 7.76

Inquiry: Let us now turn to `COc1cc2c(cc1Nc1nc(Nc3ccsc3C(N)=O)c3cc[nH]c3n1)N(C(=O)CN(C)C)CCC2(C)C`
Reply text: 8.93

Inquiry: Same read-out for `CCOc1ccc2c(-c3ccnc(Nc4cccc(C(F)(F)F)c4)n3)cnn2n1` ?
Reply text: 4.44

Inquiry: Cool, now `COC(=O)Nc1nc2ccc(Oc3ccc(NC(=O)Nc4cccc(Cl)c4)cc3)cc2[nH]1`
Reply text: 1.83

Inquiry: Same lookup for `FC(F)(F)c1cccc(-c2nn3ncccc3c2-c2ccnc(Nc3ccc4c(c3)OCCO4)n2)c1` , please.
Reply text: 15.5

Inquiry: Try the molecule `Fc1ccc(-c2cc(-c3c[nH]nc3-c3ccccn3)ccn2)cc1`
Reply text: 3.67

Inquiry: # iterate: `N#Cc1c(NC(=O)CN2CCOCC2)sc2c1CCCC2`
Reply text: 7.22

Inquiry: What do we get for `Cc1cccc(Nc2ncc(-c3ccccc3)o2)c1` ?
Reply text: 4.84

Inquiry: Item: `Fc1ccc(-c2nn3ncccc3c2-c2ccnc(Nc3ccc4c(c3)OCCO4)n2)cc1`
Reply text: 45.3

Inquiry: Please do the same for `COc1ccc2[nH]c3c4[nH]c5ccc(OC)cc5c4c4c(c3c2c1)C(=O)NC4=O` as well.
Reply text: 31
